Where do the numbers come from? From PubChem BioAssay AID1445.

We begin with a simple list: items and their reported inhibition.
- Test system: Aminopeptidase N (Plasmodium falciparum (isolate 3D7)) (UniProt O96935)
- Sequence (O96935 whole entry, looked up): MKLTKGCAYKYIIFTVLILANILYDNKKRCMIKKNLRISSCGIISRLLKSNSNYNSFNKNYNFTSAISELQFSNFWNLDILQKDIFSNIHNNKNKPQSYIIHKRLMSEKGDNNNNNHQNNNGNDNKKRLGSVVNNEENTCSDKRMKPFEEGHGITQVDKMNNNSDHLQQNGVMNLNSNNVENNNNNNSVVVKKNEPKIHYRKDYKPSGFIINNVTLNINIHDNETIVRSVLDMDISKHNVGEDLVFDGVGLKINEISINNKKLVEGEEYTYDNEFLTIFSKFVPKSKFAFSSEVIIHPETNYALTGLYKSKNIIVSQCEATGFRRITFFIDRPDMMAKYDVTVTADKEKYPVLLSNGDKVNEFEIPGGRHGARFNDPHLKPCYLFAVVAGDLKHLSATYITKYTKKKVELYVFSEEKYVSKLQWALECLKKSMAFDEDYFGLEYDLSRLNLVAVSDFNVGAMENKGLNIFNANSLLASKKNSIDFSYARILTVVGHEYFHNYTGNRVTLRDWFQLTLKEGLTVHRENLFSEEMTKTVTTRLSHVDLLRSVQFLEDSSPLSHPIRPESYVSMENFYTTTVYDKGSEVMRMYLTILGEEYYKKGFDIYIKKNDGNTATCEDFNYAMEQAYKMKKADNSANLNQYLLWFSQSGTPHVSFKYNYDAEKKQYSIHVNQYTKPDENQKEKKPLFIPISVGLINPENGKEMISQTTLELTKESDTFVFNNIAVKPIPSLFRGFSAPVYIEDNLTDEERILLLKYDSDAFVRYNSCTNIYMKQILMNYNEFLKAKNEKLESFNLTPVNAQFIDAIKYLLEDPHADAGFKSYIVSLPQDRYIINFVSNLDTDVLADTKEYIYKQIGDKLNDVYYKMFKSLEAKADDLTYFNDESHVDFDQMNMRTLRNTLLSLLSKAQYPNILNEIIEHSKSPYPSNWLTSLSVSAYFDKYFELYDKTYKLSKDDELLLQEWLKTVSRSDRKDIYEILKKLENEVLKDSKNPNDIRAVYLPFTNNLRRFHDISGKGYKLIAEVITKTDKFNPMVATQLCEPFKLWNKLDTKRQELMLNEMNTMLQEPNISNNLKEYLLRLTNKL
- Experiment summary: malaria alanyl aminopeptidase activity blockers – biochemical, fluorogenic H-Leu-NHMec substrate, 1536-well (AID 1445);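 further: plate controls were DMSO full reaction for no effect and no enzyme background for full effect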
- Condition summary: recombinant M1AAP, H-Leu-NHMec fluorogenic kinetic assay; at 30 µM, hits give high values unless noted
The whole screen tested about 220,000 compounds, of which about 910 (0.41%) were called active. Only a selection was taken, and actives are over-represented in it overall. Entries with a potency or affinity are not part of this list.
Give the value in % but do not write % after it.

Tested on Aminopeptidase N (Plasmodium falciparum (isolate 3D7)) (UniProt O96935), the item `COc1cc(/C=C/C(=O)O)cc(S(=O)(=O)N2CCc3ccccc32)c1OC` showed inhibition equal to 7.41

Tested on Aminopeptidase N (Plasmodium falciparum (isolate 3D7)) (UniProt O96935), the item `Cc1ccc(S(=O)(=O)Nc2nc3ccccc3nc2NCc2ccco2)cc1` showed inhibition equal to 10.1

Tested on Aminopeptidase N (Plasmodium falciparum (isolate 3D7)) (UniProt O96935), the item `Cc1ccc(NC(=O)CCNS(=O)(=O)c2ccc3c(c2)c(=O)n(C)c(=O)n3C)cc1C` showed inhibition equal to 9.45

Tested on Aminopeptidase N (Plasmodium falciparum (isolate 3D7)) (UniProt O96935), the item `O=C(COC(=O)c1ccc(Cl)nc1)Nc1ccc(S(=O)(=O)N2CCCC2)cc1` showed inhibition equal to 9.72

Tested on Aminopeptidase N (Plasmodium falciparum (isolate 3D7)) (UniProt O96935), the item `CSc1nc(N(C)CCO)c2sc3nc(-c4ccco4)c4c(c3c2n1)CCC4` showed inhibition equal to 11.4

Tested on Aminopeptidase N (Plasmodium falciparum (isolate 3D7)) (UniProt O96935), the item CCc1ccc(OCC(=O)NC(NC(=S)Nc2ccc(C)cc2C)C(Cl)(Cl)Cl)cc1 (stereo not drawn) showed inhibition equal to 1.79

Tested on Aminopeptidase N (Plasmodium falciparum (isolate 3D7)) (UniProt O96935), the item `CCCNS(=O)(=O)c1ccc(OCC(=O)NCCC2=CCCCC2)cc1` showed inhibition equal to 7.1

---

- Test system: Aminopeptidase N (Plasmodium falciparum (isolate 3D7))
- Experiment summary: malaria alanyl aminopeptidase activity blockers – biochemical, fluorogenic H-Leu-NHMec substrate, 1536-well (AID 1445);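 further: plate controls were DMSO full reaction for no effect and no enzyme background for full effect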
- Condition summary: recombinant M1AAP, H-Leu-NHMec fluorogenic kinetic assay; at 30 µM, hits give high values unless noted
Out of some 220,000 compounds screened, about 910 (0.41%) were called active. What follows is part of a selection rich in actives, with near analogues and random picks from the rest. Results with a measured potency or affinity are listed apart.
We begin with a simple list: items and their reported inhibition.
Give the value in % but do not write % after it.

Guide cases for inhibition, answers given:
{"columns": ["Molecule", "inhibition / %"],
 "data": [
  ["Cc1c(C(c2ccc(O)cc2)c2c(C)n(C)n(-c3ccccc3)c2=O)c(=O)n(-c2ccccc2)n1C", -4.97],
  ["O=C1C2C3C=CC(C4CC34)C2C(=O)N1/N=C/c1ccc(-c2ccc([N+](=O)[O-])cc2)o1 (centres undefined)", 7.6],
  ["COc1ccc(N2CCN(Cc3nc4ccsc4c(=O)[nH]3)CC2)cc1", 13.2],
  ["COC(=O)c1ccc(-c2ccc(/C=N/N3C(=O)C4C5C=CC(C6CC56)C4C3=O)o2)cc1 (centres undefined)", 4.36],
  ["COc1ccc(-c2cc(=Nc3c(C)n(C)n(-c4ccccc4)c3=O)c3ccccc3o2)cc1", 10.6]
]}

Consider the additional molecule presented here.
Input `COc1ccc(C(c2c(C)n(C)n(-c3ccccc3)c2=O)c2c(C)n(C)n(-c3ccccc3)c2=O)cc1O` . Output inhibition: 2.02
